Provide the reported Percent Effect of each item.
biological target: Tyrosyl-tRNA synthetase, putative (Trypanosoma cruzi (strain CL Brener)) (UniProt Q4DSP6); test: Trypanosoma cruzi tyrosyl tRNA synthetase (TcYRS) SOP; format: functional; set-up: scale not given: direction of the effect not stated beside the values; conditions: 30 µM
Sequence (Q4DSP6 as listed by the source): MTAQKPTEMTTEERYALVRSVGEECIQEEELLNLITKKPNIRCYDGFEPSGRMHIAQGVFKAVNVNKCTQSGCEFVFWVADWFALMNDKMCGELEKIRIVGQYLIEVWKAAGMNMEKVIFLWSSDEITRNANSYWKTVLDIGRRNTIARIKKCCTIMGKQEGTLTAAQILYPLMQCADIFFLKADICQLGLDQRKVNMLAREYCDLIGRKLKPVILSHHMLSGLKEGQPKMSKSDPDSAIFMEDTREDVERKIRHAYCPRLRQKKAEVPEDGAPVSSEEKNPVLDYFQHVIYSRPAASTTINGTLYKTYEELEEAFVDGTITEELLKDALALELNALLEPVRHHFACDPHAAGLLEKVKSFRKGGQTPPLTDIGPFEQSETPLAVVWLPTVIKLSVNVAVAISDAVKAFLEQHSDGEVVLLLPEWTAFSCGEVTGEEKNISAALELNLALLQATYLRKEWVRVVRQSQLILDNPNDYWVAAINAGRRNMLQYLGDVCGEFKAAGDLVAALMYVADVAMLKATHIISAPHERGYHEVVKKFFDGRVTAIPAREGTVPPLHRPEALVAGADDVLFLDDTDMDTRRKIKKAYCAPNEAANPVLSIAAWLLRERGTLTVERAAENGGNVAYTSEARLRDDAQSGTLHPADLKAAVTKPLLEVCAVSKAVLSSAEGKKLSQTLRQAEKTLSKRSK
Answers are plain numbers, in %.

| Compound | Experimental Target | Reported Endpoint | U | Observed Value |
| --- | --- | --- | --- | --- |
| O=S(=O)(c1ccccc1Cl)N1CCc2nc(C3CCNCC3)ncc2C1 | Tyrosyl-tRNA synthetase, putative (Trypanosoma cruzi (strain CL Brener)) (UniProt Q4DSP6) | Percent Effect | % | 12.5 |
| Fc1ccc(CN2CCCC2c2cncc(-n3ccnc3)n2)cc1 (stereo unspecified) | Tyrosyl-tRNA synthetase, putative (Trypanosoma cruzi (strain CL Brener)) (UniProt Q4DSP6) | Percent Effect | % | 12.5 |
| O=S(=O)(CCCN1CCCC1Cn1cccn1)c1ccccc1 (stereo unspecified) | Tyrosyl-tRNA synthetase, putative (Trypanosoma cruzi (strain CL Brener)) (UniProt Q4DSP6) | Percent Effect | % | 16.5 |

Kindly give each listed record's Percent Effect.
1. c1ncn(CC2CN(Cc3noc(C4CC4)n3)CCO2)n1 (stereo unspecified)
2. Cc1nnc(CCNC2CCN(c3ncnc4c(C)csc34)CC2)s1
3. COc1ncc(CN2CC[C@@](C)(O)[C@H](Oc3cccc(F)c3)C2)cn1
4. Nc1nccc(N2CCC(Cc3ccccc3Cl)(C(=O)O)CC2)n1
5. Cc1cnn(CC2CCCN2C(=O)c2ccc3nnc(C)n3c2)c1 (stereo unspecified)

Ans:
[0, 16.1, 10, 21.9, -3.61]

meta.source: ChEMBL document CHEMBL3988442
